Data provenance is the supplement of paper PMC10065799.

# Test System: SHP2-C SH2;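 further: peptide library displayed on the E. coli surface as eCPX fusions, selected cells deep-sequenced, score is each peptide's frequency after selection divided by its frequency in the input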
# Assay Remarks: SH2 binding enrichment of the phosphorylated peptide, bacterial display (enrichment ratio); higher = better substrate or ligand; peptides without Tyr show the background
Task for the reader: assign each of the following sequences its reported SH2 binding enrichment.

TWNPKYTLRSH [STRN3_Y474]: 0.883
ATPKGYELDAS [OTC_Y223_P225L]: 0.665
PADSGYPAYLG [ATP6V1A_Y374]: 0.62
ASMAKYFASEI [ACADSB_Y372_YF]: 0.677
RCLKDYGEFEV [GINS1_Y156]: 0.888
LRGEDYGFSVD [PRKCI_Y430]: 0.675
FKDFFYCWNTF [AICDA_Y146_YF]: 0.631

Next sequence, SH2 binding enrichment to be filled in.
State, in one line, measured SH2 binding enrichment of KTTILYKLKLG [ARF1_Y35] 0.973

====

# Test System: Fyn (UniProt P06241)
# Sequence (P06241 whole entry, looked up): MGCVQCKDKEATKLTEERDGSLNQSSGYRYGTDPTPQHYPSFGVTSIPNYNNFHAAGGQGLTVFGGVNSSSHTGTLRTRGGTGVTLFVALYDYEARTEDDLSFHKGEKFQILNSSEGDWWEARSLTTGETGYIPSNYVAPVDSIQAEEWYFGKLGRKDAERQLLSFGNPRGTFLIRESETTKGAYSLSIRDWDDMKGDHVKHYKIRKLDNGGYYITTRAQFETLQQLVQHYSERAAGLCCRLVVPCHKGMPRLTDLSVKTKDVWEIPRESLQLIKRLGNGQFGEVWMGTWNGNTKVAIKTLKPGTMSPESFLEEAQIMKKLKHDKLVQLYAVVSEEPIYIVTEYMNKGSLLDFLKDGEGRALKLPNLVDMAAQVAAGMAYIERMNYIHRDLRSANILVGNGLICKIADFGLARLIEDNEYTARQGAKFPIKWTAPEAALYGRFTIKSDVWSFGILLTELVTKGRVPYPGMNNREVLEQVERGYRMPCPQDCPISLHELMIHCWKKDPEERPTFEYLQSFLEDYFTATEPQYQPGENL
# Assay Remarks: phosphorylation enrichment, bacterial display (enrichment ratio); higher = better substrate or ligand; peptides without Tyr show the background
Short version: phosphorylation enrichment at least 0.5 is met, less is not met.

Answered cases to consult:
KAIMTYVSSFF [ACTN4_Y260_YF]: met
ADEQIYWQIAA [CSKtide_2014]: met

I'd appreciate it if you could say whether AAYNKYDQERF [CDC73_Y293_R292K] has phosphorylation enrichment at least equal to 0.5. not met

I'd appreciate it if you could say whether GGSDRYGSLRP [MYLK_Y846] has phosphorylation enrichment at least equal to 0.5. not met

I'd appreciate it if you could say whether SNPAFYVLEGV [INPPL1_Y987_N982S_YF] has phosphorylation enrichment at least equal to 0.5. met

====

# Test System: Fyn (UniProt P06241)
# Assay Remarks: phosphorylation enrichment, bacterial display (enrichment ratio); higher = better substrate or ligand; peptides without Tyr show the background
Value Type: phosphorylation enrichment
Answers are plain numbers.

Answered examples (2):
GRTPLYMDRQG [AGXT_Y194_G190R]: 0.495
VTGWGYRKLRE [F11_Y521_D526E]: 0.495

State, in one line, measured phosphorylation enrichment of SLALFYRNVFH [RBL1_Y792_K794N_YF] 0.49

====

# Test system: c-Src
# Assay Remarks: phosphorylation enrichment, bacterial display (enrichment ratio); higher = better substrate or ligand; peptides without Tyr show the background
Task for the reader: assign each of the following sequences its reported phosphorylation enrichment.
Numbers only.

FSPCDYQPCLA [TNS1_Y798_Y796C_YF]: 1.42
FFRKVYHLASV [RBL1_Y796_YF]: 0.503
PKGTGYIKTEL [STAT1_Y701]: 0.635

State the recorded phosphorylation enrichment for every item in the following list.
1. GSERDYTYEEL [EIF2S2_Y174]
2. RPIEVYLCPEE [E2F3_Y349_G344R]
3. AGIVVYNIIGW [MYH7_Y588_D587V]
4. STFVPCEIKVQ [L1CAM_Y784_Y784C]
5. TDEYEYDELIV [TGM1_Y136]
6. QKPLGYFRVNL [GALE_Y104_D103G_YF]
7. VAVVQYSGMGQ [COL6A1_Y878_T881M]
8. EYFDGYWGYSV [ITGA2B_Y265]

1: 1.63; 2: 2.55; 3: 2.14; 4: 0.444; 5: 0.454; 6: 0.409; 7: 0.451; 8: 7.52

State the recorded phosphorylation enrichment for every item in the following list.
1. DPFHVYIKNRV [KCNE3_Y95_YF]
2. FSLIHYASIVD [MYH7_Y582_G584S]

1. 0.31
2. 0.442

State the recorded phosphorylation enrichment for every item in the following list.
1. KLSHLYQDHMQ [WNT5A_Y86_C83S]
2. QLHEHYKIHKE [NSMAF_Y626]
3. GRVLGYGAFGK [FLT4_Y853]
4. MAYDRYAAICS [OR8H2_Y123_H120Y]

1: 0.406; 2: 0.777; 3: 0.41; 4: 0.661
